# PROTOCOL DESCRIPTION: Drug interaction trials: effect of rilpivirine on pharmacokinetics of coadministered drugs
# STUDY CONDITIONS: No Effect = 1.00
Quick list: Cmax of coadministered drug, geometric mean ratio with/without EDURANT per entry.
OBSERVABLE: Cmax of coadministered drug, geometric mean ratio with/without EDURANT

COMPOUND	TEST VALUE
C[C@H]1O[C@@H](O[C@H]2[C@@H](O)C[C@H](O[C@H]3[C@@H](O)C[C@H](O[C@H]4CC[C@@]5(C)[C@H](CC[C@@H]6[C@@H]5C[C@@H](O)[C@]5(C)[C@@H](C7=CC(=O)OC7)CC[C@]65O)C4)O[C@@H]3C)O[C@@H]2C)C[C@H](O)[C@@H]1O	1.06
CCCc1nn(C)c2c(=O)[nH]c(-c3cc(S(=O)(=O)N4CCNCC4)ccc3OCC)nc12	0.90
CO[C@H]1/C=C/O[C@@]2(C)Oc3c(C)c(O)c4c(O)c(c(/C=N/N5CCN(C)CC5)c(O)c4c3C2=O)NC(=O)/C(C)=C\C=C\[C@H](C)[C@H](O)[C@@H](C)[C@@H](O)[C@@H](C)[C@H](O)[C@@H]1C	1.00
COc1ccc2c(O[C@@H]3C[C@H]4C(=O)N[C@]5(C(=O)NS(=O)(=O)C6CC6)C[C@H]5/C=C\CCCCN(C)C(=O)[C@@H]4C3)cc(-c3nc(C(C)C)cs3)nc2c1C	1.10
CC(C)c1c(C(=O)Nc2ccccc2O)c(-c2ccccc2)c(-c2ccc(F)cc2)n1CCC(O)CC(O)CC(=O)O (stereo not shown) [2-hydroxy-atorvastatin]	1.58
CC(=O)N1CCN(c2ccc(OCC3COC(Cn4ccnc4)(c4ccc(Cl)cc4Cl)O3)cc2)CC1 (stereo not shown)	0.85
CC(C)c1c(C(=O)Nc2ccc(O)cc2)c(-c2ccccc2)c(-c2ccc(F)cc2)n1CC[C@@H](O)C[C@@H](O)CC(=O)O [4-hydroxy-atorvastatin]	1.28

* * *

# PROTOCOL DESCRIPTION: Solubilities of non-micronized dolutegravir sodium in various solvents at 25° C.
# Type: physicochemical
# STUDY CONDITIONS: thermodynamic from solid; FaSSIF, pH 6.5, 25° C., 4 hours

COMPOUND	RESULT UNITS	solubility at 4 h
C[C@@H]1CCO[C@H]2Cn3cc(C(=O)NCc4ccc(F)cc4F)c(=O)c([O-])c3C(=O)N12.[Na+] [dolutegravir sodium]	µg/mL	239

* * *

# PROTOCOL DESCRIPTION: Drug interaction trials: effect of rilpivirine on pharmacokinetics of coadministered drugs
# STUDY CONDITIONS: No Effect = 1.00
OBSERVABLE: AUC of coadministered drug, geometric mean ratio with/without EDURANT

COMPOUND	TEST VALUE
COc1ccc2c(O[C@@H]3C[C@H]4C(=O)N[C@]5(C(=O)NS(=O)(=O)C6CC6)C[C@H]5/C=C\CCCCN(C)C(=O)[C@@H]4C3)cc(-c3nc(C(C)C)cs3)nc2c1C [Simeprevir]	1.06
CO[C@H]1/C=C/O[C@@]2(C)Oc3c(C)c(O)c4c(O)c(c(/C=N/N5CCN(C)CC5)c(O)c4c3C2=O)NC(=O)/C(C)=C\C=C\[C@H](C)[C@H](O)[C@@H](C)[C@@H](O)[C@@H](C)[C@H](O)[C@@H]1C [25-desacetylrifampin]	0.91
CC(=O)N1CCN(c2ccc(OCC3COC(Cn4ccnc4)(c4ccc(Cl)cc4Cl)O3)cc2)CC1 (centres unmarked) [Ketoconazole]	0.76
CC(C)c1c(C(=O)Nc2ccccc2O)c(-c2ccccc2)c(-c2ccc(F)cc2)n1CCC(O)CC(O)CC(=O)O (centres unmarked) [2-hydroxy-atorvastatin]	1.39
CC(C)c1c(C(=O)Nc2ccc(O)cc2)c(-c2ccccc2)c(-c2ccc(F)cc2)n1CC[C@@H](O)C[C@@H](O)CC(=O)O [4-hydroxy-atorvastatin]	1.23
